Test system: DU-145 prostate
ASSAY_NAME: NCI-60 one-dose screen, 48 h (100 = growth as untreated, 0 = no growth, -100 = all killed)
ASSAY_CONTEXT: 10 µM unless noted
This is part of a sample that, as a whole, favours compounds with a hit. Of some 83,000 tested, about 20% had one in any assay.
REPORTED_PROPERTY: growth (%)
Record the value in %, omitting the unit from your answer.

Ask: What value of growth has been recorded for this entry: COc1ccc(Nc2[nH]n3c(=O)cc(C)nc3c2C(N)=O)c(OC)c1
Reply: 112

Ask: State the recorded growth for this entry: COc1ccc(/C=C/c2c(C(C)=O)c(C)nc3ccccc23)cc1
Reply: 97.7

Ask: Form field: reported growth of Cc1ccc(S(=O)(=O)n2cc(C(=O)C(=O)Nc3ccncc3)c3ccccc32)cc1
Reply: 22.4

Ask: I would be grateful if you could share the reported growth for COP(=O)(OC)/C(=N\NS(=O)(=O)c1ccc(C)cc1)c1ccccc1 .
Reply: 106

Ask: Item CCc1cnc(=S)n(-c2ccccc2)c1 has what recorded growth?
Reply: 104

Ask: Entry Nc1ncnc2c1c(-c1ccc(Oc3ccccc3)cc1)nn2C[C@@H]1SSC[C@@H]1O has what growth?
Reply: 34
